Quick reference: pIC50 of the listed items.
# MEASUREMENT TARGET: human recombinant FAAH (Homo sapiens (Human), UniProt O00519)
# Sequence (O00519 whole entry): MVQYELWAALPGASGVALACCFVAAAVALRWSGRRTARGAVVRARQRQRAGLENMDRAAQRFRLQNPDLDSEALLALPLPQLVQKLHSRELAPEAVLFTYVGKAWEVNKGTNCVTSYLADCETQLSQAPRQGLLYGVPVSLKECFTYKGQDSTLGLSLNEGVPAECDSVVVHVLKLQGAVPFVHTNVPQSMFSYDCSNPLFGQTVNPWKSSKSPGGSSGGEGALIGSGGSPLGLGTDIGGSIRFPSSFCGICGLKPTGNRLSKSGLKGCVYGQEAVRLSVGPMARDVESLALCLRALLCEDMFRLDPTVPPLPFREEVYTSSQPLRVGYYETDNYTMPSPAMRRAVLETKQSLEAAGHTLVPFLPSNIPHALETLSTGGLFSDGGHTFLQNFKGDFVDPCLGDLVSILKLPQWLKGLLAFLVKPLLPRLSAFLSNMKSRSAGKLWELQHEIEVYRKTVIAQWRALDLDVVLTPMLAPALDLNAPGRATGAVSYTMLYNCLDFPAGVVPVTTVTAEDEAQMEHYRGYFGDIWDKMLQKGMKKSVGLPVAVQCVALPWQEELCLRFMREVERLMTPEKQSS
# TEST: In vitro inhibition of human recombinant FAAH activity (Cayman FAAH inhibitor screening kit, AMC arachidonoyl amide hydrolysis)
pIC50: −log10 of the molar value.

Name the reported pIC50 value associated with the compound N#Cc1ncn(C(=O)N2CC3CN(C(c4ccc5c(c4)COCO5)c4ccc5c(c4)COCO5)CC3C2)n1 (stereo not drawn) [Example 81]
5.00 to 6.00

Name the reported pIC50 value associated with the compound N#Cc1ncn(C(=O)N2CCC3(CC2)CN(C(c2ccc4c(c2)COCO4)c2ccc4c(c2)COCO4)C3)n1 [Example 83]
4.30 to 5.00

Name the reported pIC50 value associated with the compound O=C(N1CCN(C(c2ccc3c(c2)COCO3)c2ccc3c(c2)COCO3)CC1)n1nnc2cc(Br)ccc21 [Example 38]
< 4.30

====

# MEASUREMENT TARGET: human recombinant FAAH (Homo sapiens (Human), UniProt O00519)
# TEST: In vitro inhibition of human recombinant FAAH activity (Cayman FAAH inhibitor screening kit, AMC arachidonoyl amide hydrolysis)
pIC50: −log10 of the molar value.
QUANTITY NAME: pIC50

• COc1ccc(N(c2ccc(F)cc2)C2CCN(C(=O)n3nnc4ccc(C#N)cc43)CC2)cc1 [Example 65] = 6.00 to 7.00
• O=C(Nc1cccnn1)N1CCC(=Cc2cccc(Oc3ccc(C(F)(F)F)cn3)c2)CC1 [PF-04457845, reference compound] = 8.72
• O=C(Oc1ccc2c(c1)CCC2)N1CCN(C(c2ccc3c(c2)COCO3)c2ccc3c(c2)COCO3)CC1 [Example 12] = < 5.00
• O=C(Oc1ccc(Oc2ccccc2)cc1)N1CCN(C(c2ccc3c(c2)COCO3)c2ccc3c(c2)COCO3)CC1 [Example 7] = < 5.00
• O=C(Nc1cnccc1Cl)N1CCN(Cc2ccc3c(c2)OC(F)(F)O3)CC1 [JNJ-42165279, reference compound] = 6.98

Name the reported pIC50 value associated with the compound O=C(Nc1cccnc1)N1CCN(C(c2ccc3c(c2)COCO3)c2ccc3c(c2)COCO3)CC1 [Example 43]
< 4.30

Name the reported pIC50 value associated with the compound O=C(N1CCN(C(c2ccc3c(c2)CCO3)c2ccc3c(c2)CCO3)CC1)n1nnc2ccccc21 [Example 108]
~5.00

Name the reported pIC50 value associated with the compound COc1ccc(C(c2ccc(OC)nc2)N2CCN(C(=O)n3cnc(C#N)n3)CC2)cn1 [Example 114]
~5.00

Name the reported pIC50 value associated with the compound N#Cc1ccc2nnn(C(=O)N3CCC(N(c4ccc(F)cc4)c4ccc5c(c4)OCO5)CC3)c2c1 [Example 63]
6.00 to 7.00

====

# MEASUREMENT TARGET: human recombinant MAGL (Homo sapiens (Human), UniProt Q99685)
# Sequence (Q99685 whole entry): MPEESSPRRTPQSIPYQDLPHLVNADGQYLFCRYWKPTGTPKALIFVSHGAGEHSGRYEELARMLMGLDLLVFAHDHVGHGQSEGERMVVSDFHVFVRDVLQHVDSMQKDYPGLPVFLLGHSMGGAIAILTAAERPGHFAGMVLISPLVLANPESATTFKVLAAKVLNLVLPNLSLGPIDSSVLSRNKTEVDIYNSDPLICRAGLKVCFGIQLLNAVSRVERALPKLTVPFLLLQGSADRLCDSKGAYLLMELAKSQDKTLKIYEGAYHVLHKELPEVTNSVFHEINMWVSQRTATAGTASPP
# TEST: In vitro inhibition of human recombinant MAGL activity (Cayman inhibitor screening kit, 4-nitrophenylacetate hydrolysis)
# Assay type: biochemical
# CONDITION LABEL: human recombinant MAGL; read-out: Inhibition on MAGL activity (IC50)
pIC50: −log10 of the molar value.
QUANTITY NAME: pIC50

// worked examples, pIC50 included
- O=C(N1CCN(C(c2ccc3c(c2)COCO3)c2ccc3c(c2)COCO3)CC1)n1ncc2ccccc21: < 7.00
- O=C(N1CCN(C(c2ccc3c(c2)COCO3)c2ccc3c(c2)COCO3)CC1)n1nnc2cc(Br)ccc21: 7.00 to 8.00
- O=C(Oc1ccc(Oc2ccccc2)cc1)N1CCN(C(c2ccc3c(c2)COCO3)c2ccc3c(c2)COCO3)CC1: < 7.00
- C=COc1ccc(N(c2ccc(F)cc2)C2CCN(C(=O)n3nnc4ccc(C#N)cc43)CC2)cc1: 8.00 to 9.00
- N#Cc1ccc2nnn(C(=O)N3CCC(OC(c4ccc5c(c4)COCO5)c4ccc5c(c4)COCO5)CC3)c2c1: 8.00 to 9.00

Name the reported pIC50 value associated with the compound `N#Cc1ccc2c(c1)nnn2C(=O)N1CCC(OC(c2ccc3c(c2)COCO3)c2ccc3c(c2)COCO3)CC1`
8.00 to 9.00

Name the reported pIC50 value associated with the compound N#Cc1ncn(C(=O)N2CC3CC(=C(c4ccc5c(c4)COCO5)c4ccc5c(c4)COCO5)CC3C2)n1 (stereo not drawn)
8.00 to 9.00

Name the reported pIC50 value associated with the compound `O=C(N1CCN(C(c2ccc3c(c2)COCO3)c2ccc3c(c2)COCO3)CC1)n1nnc2ccccc21`
7.70 to 9.00

Name the reported pIC50 value associated with the compound `COc1cccc(C(c2cccc(OC)c2)N2CCN(C(=O)n3nnc4ccc(C#N)cc43)CC2)c1`
8.00 to 9.00

====

Quick reference: pIC50 of the listed items.
# MEASUREMENT TARGET: human recombinant MAGL (Homo sapiens (Human), UniProt Q99685)
# TEST: In vitro inhibition of human recombinant MAGL activity (Cayman inhibitor screening kit, 4-nitrophenylacetate hydrolysis)
# Format: biochemical
# CONDITION LABEL: human recombinant MAGL; read-out: Inhibition on MAGL activity (IC50)
pIC50: −log10 of the molar value.

// worked examples, pIC50 included
• N#Cc1ncn(C(=O)N2CCC(N(c3ccc(C(F)(F)F)cc3)c3ccc4c(c3)OCO4)CC2)n1 = 8.00 to 9.00
• CCN(CC)C(=O)N1CCN(C(c2ccc3c(c2)COCO3)c2ccc3c(c2)COCO3)CC1 = < 7.00
• N#Cc1ncn(C(=O)N2CCC3(CC2)CN(C(c2ccc4c(c2)COCO4)c2ccc4c(c2)COCO4)C3)n1 = 8.00 to 9.00
• N#Cc1ncn(C(=O)N2CCN(C(c3ccc(-n4cccn4)cc3)c3ccc4c(c3)COCO4)CC2)n1 (stereo not drawn) = 8.00 to 9.00
• N#Cc1ncn(C(=O)N2CC3CN(C(c4ccc5c(c4)COCO5)c4ccc5c(c4)COCO5)CC3C2)n1 (stereo not drawn) = 8.00 to 9.00

Next compound, pIC50 to be filled in.
Name the reported pIC50 value associated with the compound `N#Cc1ccc2nnn(C(=O)N3CCN(C(c4ccc5c(c4)COCO5)c4ccc5c(c4)COCO5)CC3)c2c1`
8.00 to 9.00

====

# MEASUREMENT TARGET: human recombinant FAAH (Homo sapiens (Human))
# TEST: In vitro inhibition of human recombinant FAAH activity (Cayman FAAH inhibitor screening kit, AMC arachidonoyl amide hydrolysis)
pIC50: −log10 of the molar value.
Quick reference: pIC50 of the listed items.

// worked examples, pIC50 included
- CC(C)=NOC(=O)N1CCN(C(c2ccc3c(c2)COCO3)c2ccc3c(c2)COCO3)CC1: < 4.30
- O=C(N1CCN(C(c2ccc3ncccc3c2)c2ccc3ncccc3c2)CC1)n1nnc2ccccc21: ~4.30
- COc1ccc(OC(=O)N2CCN(C(c3ccc4c(c3)COCO4)c3ccc4c(c3)COCO4)CC2)cc1: < 4.30
- C=COc1ccc(N(c2ccc(F)cc2)C2CCN(C(=O)n3nnc4cc(C#N)ccc43)CC2)cc1: 6.00 to 7.00

Next compound, pIC50 to be filled in.
Name the reported pIC50 value associated with the compound COc1ccc(C(c2cccnc2)N2CCN(C(=O)n3cnc(C#N)n3)CC2)cc1 (centres unmarked)
5.00 to 6.00

====

# MEASUREMENT TARGET: human recombinant MAGL (Homo sapiens (Human), UniProt Q99685)
# TEST: In vitro inhibition of human recombinant MAGL activity (Cayman inhibitor screening kit, 4-nitrophenylacetate hydrolysis)
# Assay type: biochemical
# CONDITION LABEL: human recombinant MAGL; read-out: Inhibition on MAGL activity (IC50)
# Text: The inhibitory effect of the synthetic chemicals on activity of human recombinant MAGL was studied using commercial inhibitor screening kit (Cayman Chemical). […] The absorbance of the yellow product can be analyzed using the plate reader. […]
QUANTITY NAME: IC50

// worked examples, IC50 included
- N#Cc1ncn(C(=O)N2CC3(CCN(C(c4ccc5c(c4)COCO5)c4ccc5c(c4)COCO5)C3)C2)n1: 0.001 to 0.01 µM
- CC(C)=NOC(=O)N1CCN(C(c2ccc3c(c2)COCO3)c2ccc3c(c2)COCO3)CC1: > 10 µM
- C=COc1ccc(N(c2ccc(F)cc2)C2CCN(C(=O)n3nnc4cc(C#N)ccc43)CC2)cc1: 0.001 to 0.01 µM
- N#Cc1ncn(C(=O)N2CC3(CCN(C(c4ccc5c(c4)COCO5)c4ccc5c(c4)COCO5)CC3)C2)n1: 0.01 to 0.1 µM

Name the reported IC50 value associated with the molecule `N#Cc1ncn(C(=O)N2CC3(C2)CN(C(c2ccc4c(c2)COCO4)c2ccc4c(c2)COCO4)C3)n1`
0.01 to 0.1 µM

Name the reported IC50 value associated with the molecule `S=C(N1CCN(C(c2ccc3c(c2)COCO3)c2ccc3c(c2)COCO3)CC1)n1cncn1`
> 0.1 µM

Name the reported IC50 value associated with the molecule `O=C(N1CCN(C(c2ccc3c(c2)COCO3)c2ccc3c(c2)COCO3)CC1)n1ccnc1`
> 0.1 µM

Name the reported IC50 value associated with the molecule `O=C(N1CCN(C(c2ccc3ncccc3c2)c2ccc3ncccc3c2)CC1)n1nnc2ccccc21`
0.01 to 0.1 µM

Name the reported IC50 value associated with the molecule `N#Cc1ccc2c(c1)nnn2C(=O)N1CCN(C(c2ccc3c(c2)COCO3)c2ccc3c(c2)COCO3)CC1`
0.01 to 0.1 µM
